Answer each item with its documented TGI.
tested on: CAKI-1 renal; test: NCI tumour cell line growth inhibition, 48 h

Use the examples below as a reference point.
O=c1[nH]c(=O)n(C2CC(O)C(CO)O2)cc1NN=NCc1ccccc1 (stereo not given) = > 100 µM
Cc1ccc(S(=O)(=Nc2ccccc2)C(C(C)C)C(C)(C)Cl)cc1 (stereo not given) = > 50 µM

// for each compound in input: emit TGI
1. CC(/C=N/NC1=NCCCCN1)=N\NC1=NCCCCN1
2. O=C1Cc2ccccc2N1/N=C\c1ccc(O)cc1
3. O=C(Nc1ccc2ccccc2c1)Nn1cnnc1

Output:
1. > 100 µM
2. > 100 µM
3. > 100 µM
